molecular target: UniProt P61169; assay: Tested for affinity against dopamine D2 receptor using […] in rat brain
Sequence (P61169 whole entry): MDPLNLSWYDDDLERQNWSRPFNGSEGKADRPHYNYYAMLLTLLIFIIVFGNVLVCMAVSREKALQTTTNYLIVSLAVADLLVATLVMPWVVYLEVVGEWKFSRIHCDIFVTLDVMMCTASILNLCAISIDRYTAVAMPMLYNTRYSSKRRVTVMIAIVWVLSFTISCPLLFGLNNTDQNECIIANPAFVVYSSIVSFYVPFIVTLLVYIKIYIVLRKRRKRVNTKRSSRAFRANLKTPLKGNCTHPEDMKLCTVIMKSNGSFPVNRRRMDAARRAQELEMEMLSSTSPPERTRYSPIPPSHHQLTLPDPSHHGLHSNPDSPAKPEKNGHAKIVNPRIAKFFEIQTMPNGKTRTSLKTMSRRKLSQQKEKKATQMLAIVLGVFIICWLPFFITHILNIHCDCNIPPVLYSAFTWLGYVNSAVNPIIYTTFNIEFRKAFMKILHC
pIC50: −log10 of the molar value.
RECORDED_ENDPOINT: pIC50

Entry under review: "C[C@H]1CN(CC[C@H](O)C2CCCCC2)CC[C@@]1(C)c1cccc(O)c1" . Reported pIC50?
< 6.00

---

target: D(1A) dopamine receptor (Rattus norvegicus); experiment: Tested for affinity against dopamine D1 receptor using [3H]SCH-23,390 in rat brain
Sequence (P18901 whole entry): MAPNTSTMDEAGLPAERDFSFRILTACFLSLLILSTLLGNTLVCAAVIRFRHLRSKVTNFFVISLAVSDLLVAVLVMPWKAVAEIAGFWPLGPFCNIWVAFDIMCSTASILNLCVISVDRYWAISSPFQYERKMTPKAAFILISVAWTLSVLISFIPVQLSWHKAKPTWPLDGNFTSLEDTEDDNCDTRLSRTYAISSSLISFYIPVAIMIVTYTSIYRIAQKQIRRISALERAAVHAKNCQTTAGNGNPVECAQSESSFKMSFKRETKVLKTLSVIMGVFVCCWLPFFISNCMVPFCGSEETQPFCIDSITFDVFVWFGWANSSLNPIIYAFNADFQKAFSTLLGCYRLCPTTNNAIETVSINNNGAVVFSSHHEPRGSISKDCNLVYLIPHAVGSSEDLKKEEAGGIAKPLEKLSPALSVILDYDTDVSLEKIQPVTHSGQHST
pIC50: −log10 of the molar value.
RECORDED_ENDPOINT: pIC50

Bench note: what pIC50 did "C[C@H]1CN(CC[C@H](O)C2CCCCC2)CC[C@@]1(C)c1cccc(O)c1" show?
< 6.00

Cited source: ChEMBL document CHEMBL1127053
